- target: recombinant homotrimeric HA A/Hong Kong/156/97 H5N1 (Influenza A virus A/Hong Kong/156/97 (H5N1))
- procedure.summary: protein microarray, purified IgG, trimeric HA
- experimental.setup: remark: other sources report otherwise
experimental.readout: Trimeric HA Binding: RLU (RLU)
Report the value in RLU with no unit label.

Please review the entries below; each comes with its answer.
TCN-528 (5087_P17) (antibody, V domains shown) VH: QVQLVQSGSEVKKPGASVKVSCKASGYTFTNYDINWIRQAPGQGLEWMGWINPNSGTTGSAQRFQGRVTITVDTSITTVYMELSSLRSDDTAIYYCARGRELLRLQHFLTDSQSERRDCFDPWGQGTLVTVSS VL: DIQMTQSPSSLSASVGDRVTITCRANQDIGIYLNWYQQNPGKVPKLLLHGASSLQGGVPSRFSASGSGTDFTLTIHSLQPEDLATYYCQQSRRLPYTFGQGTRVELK ... 25700
TCN-552 (5249_I23) (antibody, V domains shown) VH: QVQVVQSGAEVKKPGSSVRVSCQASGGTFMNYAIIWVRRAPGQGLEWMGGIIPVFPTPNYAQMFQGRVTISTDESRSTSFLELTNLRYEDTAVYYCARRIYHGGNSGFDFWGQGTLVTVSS VL: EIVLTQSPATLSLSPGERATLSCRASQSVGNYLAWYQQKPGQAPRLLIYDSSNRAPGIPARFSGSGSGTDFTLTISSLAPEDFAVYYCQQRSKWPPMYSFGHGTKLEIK ... 16200

Kindly consider the entry below.
Which Trimeric HA Binding: RLU value is on record for TCN-536 (5095_N01) (antibody, V domains shown) VH: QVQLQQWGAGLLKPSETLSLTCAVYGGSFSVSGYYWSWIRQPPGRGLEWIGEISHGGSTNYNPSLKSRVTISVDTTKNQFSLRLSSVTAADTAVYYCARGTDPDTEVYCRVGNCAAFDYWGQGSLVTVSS VL: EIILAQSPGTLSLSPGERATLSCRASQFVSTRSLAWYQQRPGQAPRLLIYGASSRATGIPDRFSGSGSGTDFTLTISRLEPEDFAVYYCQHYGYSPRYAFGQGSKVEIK ?
732
